Molecular target: human EP2 receptor (Homo sapiens)
Sequence (P43116 whole entry): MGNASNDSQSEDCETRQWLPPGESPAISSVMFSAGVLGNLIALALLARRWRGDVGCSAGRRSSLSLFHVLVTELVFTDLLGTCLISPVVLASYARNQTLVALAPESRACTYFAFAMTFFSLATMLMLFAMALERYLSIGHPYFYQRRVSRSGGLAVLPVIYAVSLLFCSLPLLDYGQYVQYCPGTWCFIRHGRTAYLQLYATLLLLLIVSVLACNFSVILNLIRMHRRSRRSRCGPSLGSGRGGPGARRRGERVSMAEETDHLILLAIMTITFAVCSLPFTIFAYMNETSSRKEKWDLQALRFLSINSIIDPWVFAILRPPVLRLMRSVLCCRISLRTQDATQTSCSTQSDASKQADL
Assay: Measurement of EP2 agonist activity (cAMP amount in cells)
Details: HEK 293 cells expressing human EP2 receptor, cAMP increase, 30 minutes
Where a name gives a salt, the structure may show the parent alone.
Item-by-item account of EC50
Enter your answer as a number in nM; do not include the unit.

Hello, please tell me recorded EC50 for this one: `CCCOCC1(c2ccc(CN(Cc3cccc(NCC(=O)O)n3)S(=O)(=O)c3ccccn3)cc2)CC1`
3

Give recorded EC50. CC(C)(C)c1ccc(CN(Cc2cccc(NCC(=O)O)n2)S(=O)(=O)c2ccc(Cl)cc2)cc1 [Example 33, hydrochloride]
4.4

Look up EC50 of `CCC1(c2ccc(CN(Cc3cccc(NCC(=O)O)n3)S(=O)(=O)c3cccnc3)cc2)CC1` and report it.
4.5

Give the reported EC50 for this compound. `CCCCC(C)(C)c1ccc(CN(Cc2cccc(NCC(=O)O)n2)S(=O)(=O)c2ccccn2)s1`
3.6

Annotate the compound `CCCCC1(c2ccc(CN(Cc3cccc(NCC(=O)O)n3)S(=O)(=O)c3ccncc3)cc2)CC1` with its measured EC50.
6.3
